Test system: S. pneumoniae Stpn_Erm S 4297
Experiment: Antibacterial activity in vitro, MIC by broth microdilution
Assay type: cell-based, Streptococcus pneumoniae
Details: Table 5, Strain ID J: S. pneumoniae Stpn_Erm S 4297
propertyMeasured: MIC

C=C[C@]12OC(=O)N(CCCCn3cnc(-c4cccnc4)c3)[C@@H]1[C@@H](C)C(=O)[C@H](C)C[C@](C)(OC)[C@H](OC1O[C@H](C)C[C@H](N(C)C)[C@H]1O)[C@@H](C)C(=O)[C@](C)(F)C(=O)O[C@@H]2CC (stereo partly drawn) | ≦0.05
CC[C@H]1OC(=O)[C@@](C)(F)C(=O)[C@H](C)[C@@H](O[C@@H]2O[C@H](C)C[C@H](N(C)C)[C@H]2O)[C@@](C)(OC)C[C@@H](C)C(=O)[C@H](C)[C@H]2N(CCCC(C)(C)n3cnc4cccnc43)C(=O)O[C@]12CC | ≦0.05
CC[C@H]1OC(=O)[C@@](C)(F)C(=O)[C@H](C)[C@@H](OC2O[C@H](C)C[C@H](N(C)C)[C@H]2O)[C@@](C)(OC)C[C@@H](C)C(=O)[C@H](C)[C@H]2N(CCCC(C)(C)n3cnc(-c4cccnc4)c3)C(=O)O[C@]12CC (stereo partly drawn) | ≦0.05
